test: Unbound fraction of dotinurad in plasma at the time of Cmax (ultrafiltered plasma, LC-MS/MS); assay type: in vivo, human; details: male, human, plasma, oral; dotinurad alone, 4 mg, n = 12
MEASURED PROPERTY: fraction unbound
Numbers only.

For the compound O=C(c1cc(Cl)c(O)c(Cl)c1)N1CS(=O)(=O)c2ccccc21 , what fraction unbound is on record?
0.00534

----------
experiment: Plasma pharmacokinetics of dotinurad, single 4 mg oral dose with and without oxaprozin, in healthy adult males; format: in vivo, human; conditions: male, human, plasma; dotinurad alone, single 4 mg oral dose, fed, n = 12
MEASURED PROPERTY: Cmax (ng/mL)
Numbers only, in ng/mL.

Query: Cmax; subject: O=C(c1cc(Cl)c(O)c(Cl)c1)N1CS(=O)(=O)c2ccccc21
271

----------
assay: Plasma pharmacokinetics of dotinurad, single 4 mg oral dose with and without oxaprozin, in healthy adult males; format: in vivo, human; settings: male, human, plasma; dotinurad alone, single 4 mg oral dose, fed, n = 12; read-out: T1/2, mean (converted)
MEASURED PROPERTY: half-life (h)
Numbers only, in h.

Endpoint output: half-life of O=C(c1cc(Cl)c(O)c(Cl)c1)N1CS(=O)(=O)c2ccccc21 [Dotinurad, dotinurad] . Value?
9.85
